# Tested on: C. glabrata
# testDetails: Checkerboard FIC assay in combination with fluconazole (MIC alone and in combination, FICI)
# Assay type: cell-based, Candida glabrata
# conditionLabel: concentration in combination as multiple of the compound's MIC alone; fluconazole MIC 4 ug/mL
reportedProperty: Multiple of compound MIC to synergize fluconazole MIC to 4 ug/mL

Below, 5 molecules whose answers are already recorded.
Cn1ccc2cc(CCCCc3ccc(CC(=O)NO)cc3)ccc21: (⅛x)
CN(C)CCSCC(=O)Nc1ccc(CCCCc2ccc(CC(=O)NO)cc2)cc1: (¼x)
O=C(Cc1ccc(CCCCc2ccc(NS(=O)(=O)CCN3CCOCC3)cc2)cc1)NO: (⅛x)
COCCOCCOCC(=O)Nc1ccc(CCCCc2ccc(CC(=O)NO)cc2)cc1: (¼x)
Nc1cccc(CCCCc2ccc(CC(=O)NO)cc2)c1: (¼x)

C. glabrata / Multiple of compound MIC to synergize fluconazole MIC to 4 ug/mL / `O=C(Cc1ccc(CCCCc2ccc(O)c(O)c2)cc1)NO` : value? (¼x)

Write down the reported Multiple of compound MIC to synergize fluconazole MIC to 4 ug/mL of `O=C(Cc1ccc(CCCCc2cccc(NC(=O)CO)c2)cc1)NO` , test system: C. glabrata. (¼x)

Query for C. glabrata: what Multiple of compound MIC to synergize fluconazole MIC to 4 ug/mL does the record show for `O=C(Cc1ccc(CCCCc2ccc(C(=O)N3CCN(C/C=C/c4ccccc4)CC3)cc2)cc1)NO` ? (¼x)

Form entry - test system: C. glabrata; read-out: Multiple of compound MIC to synergize fluconazole MIC to 4 ug/mL; molecule: O=C(Cc1ccc(CCC(F)Cc2ccccc2)cc1)NO (stereo not drawn) (½x)

C. glabrata / Multiple of compound MIC to synergize fluconazole MIC to 4 ug/mL / `O=C(Cc1csc(CCCCc2ccccc2)n1)NO` : value? (¼x)

Form entry - test system: C. glabrata; read-out: Multiple of compound MIC to synergize fluconazole MIC to 4 ug/mL; molecule: `O=C(Cc1cnc(CCCCc2ccccc2)s1)NO` (¼x)

Multiple of compound MIC to synergize fluconazole MIC to 4 ug/mL of `O=C(Cc1ccc(CCC/C(=N\O)c2ccccc2)cc1)NO` on C. glabrata? (¼x)

Find Multiple of compound MIC to synergize fluconazole MIC to 4 ug/mL (C. glabrata) for the entry `O=C(Cc1ccc(CCCCc2ccc(NC(=O)NCCN3CCOCC3)cc2)cc1)NO` (¼x)

Query for C. glabrata: what Multiple of compound MIC to synergize fluconazole MIC to 4 ug/mL does the record show for `CN1CCC(C(=O)Nc2ccc(CCCCc3ccc(CC(=O)NO)cc3)cc2)CC1.Cl` ? (⅛x)

====

# System: C. glabrata
# testDetails: Checkerboard FIC assay in combination with fluconazole (MIC alone and in combination, FICI)
# Assay type: cell-based, Candida glabrata
# conditionLabel: Nakaseomyces glabratus; MIC of the example compound alone against C. glabrata in the checkerboard assay, approximately 48 hr; read-out: Methylgene MIC
Please respond with reported MIC for every item in the list.

Recorded MIC of O=C(Cc1ccc(CCC(F)Cc2ccccc2)cc1)NO (centres unmarked) , please. 2 µg/mL

Reported MIC, compound `COCCOCCOCCOCCC(=O)Nc1ccc(CCCCc2ccc(CC(=O)NO)cc2)cc1` : ____ 4 µg/mL

Sample `O=C(Cc1ccc(CCCCc2ccccc2NC(=O)CO)cc1)NO` — what was its MIC? > 16 µg/mL

What does the data say about its MIC? Entry: `COCCOCCOCCNC(=O)c1ccc(CCCCc2ccc(CC(=O)NO)cc2)cc1` 8 µg/mL

Endpoint output: MIC of O=C(Cc1ccc(CCCC(F)c2ccccc2)cc1)NO (centres unmarked) . Value? 8 µg/mL

====

# System: C. glabrata
# testDetails: Checkerboard FIC assay in combination with fluconazole (MIC alone and in combination, FICI)
# Assay type: cell-based, Candida glabrata
# conditionLabel: C. glabrata; FICI using a fluconazole MIC of 128 μg/mL
Please provide measured FICI of combination resulting in fluconazole MIC of: 8 ug/mL (value in parenthesis) for the entries that follow.
Lab note: jot down the number only; don't add units.

Requested read-out: FICI of combination resulting in fluconazole MIC of: 8 ug/mL (value in parenthesis). Entry: `Nc1ccc(CCCCc2ccc(CC(=O)NO)cc2)cc1` 0.188

Value lookup for FICI of combination resulting in fluconazole MIC of: 8 ug/mL (value in parenthesis); key = `O=C(Cc1ccc(CCCCc2ccccc2NC(=O)CO)cc1)NO` 0.313

So what's the measured FICI of combination resulting in fluconazole MIC of: 8 ug/mL (value in parenthesis) for this one? `O=C(Cc1ccc(CCCCc2ccc(C(=O)N3CCOCCOCCOCCOCCOCC3)cc2)cc1)NO` 0.125

# FICI of combination resulting in fluconazole MIC of: 8 ug/mL (value in parenthesis) lookup, item `Nc1ccccc1CCCCc1ccc(CC(=O)NO)cc1` 0.313

Look up FICI of combination resulting in fluconazole MIC of: 8 ug/mL (value in parenthesis) for this compound: `COc1ccc(CCCCc2ccc(CC(=O)NO)cc2)cc1OC` 0.188

Any idea what its FICI of combination resulting in fluconazole MIC of: 8 ug/mL (value in parenthesis) is? The compound is `O=C(Cc1ccc(CCCCc2ccc(O)cc2)cc1)NO` 0.188
